# Tested on: MDA-MB-231 breast
# assay.overview: NCI tumour cell line growth inhibition, 48 h; in the data active = GI50 below about 0.43 µM; inactive = the rest
Give your call using only these classes: 1 = active, 0 = inactive

compound	assigned.label
Oc1ccccc1C=Nc1nc(SCc2ccccc2)nc2[nH]ncc12	0
FC(F)(F)c1ccc(C#Cc2ccccc2C#Cc2ccccc2)cc1	0
CNC(=O)CC1NC(=O)c2csc(n2)-c2ccc(-c3nc(C4=NC(C(=O)N5CCCC5C(N)=O)CO4)cs3)nc2-c2csc(n2)-c2csc(n2)C(C(C)C)NC(=O)CNC(=O)c2csc(n2)C(C(C)C)NC(=O)c2nc1sc2C (stereo unspecified)	0
COc1cc(Cl)cc(-c2nn(-c3cccc(NC(=O)Nc4cc(C(F)(F)F)cc(C(F)(F)F)c4)c3)cc2-c2ccncc2)c1	0
CC(C)COCC(CN(Cc1ccccc1)c1ccccc1)N1CCCC1 (stereo unspecified)	0

IN: Write down the call the test reported for this compound. Item: CCC[CH2][Sn]([CH2]CCC)([CH2]CCC)[O]C(=O)c1ccc(Cl)cc1Cl
OUT: 1

* * *

# System: DU-145 prostate
# assay.overview: NCI tumour cell line growth inhibition, 48 h
Reported TGI values are given for each entry in this list.

Study these solved cases before continuing.
molecule	target	assay.readout	data.value
COc1ccc(NC(=O)/C(=N/NC(N)=S)C2C(=O)NC(=S)NC2=O)c(OC)c1	DU-145 prostate	TGI	> 100 µM
CN(N)/N=N/c1nc[nH]c1[N+](=O)[O-]	DU-145 prostate	TGI	> 100 µM
CNC(=O)CC1NC(=O)c2csc(n2)-c2ccc(-c3nc(C4=NC(C(=O)N5CCCC5C(N)=O)CO4)cs3)nc2-c2csc(n2)-c2csc(n2)C(C(C)C)NC(=O)CNC(=O)c2csc(n2)C(C(C)C)NC(=O)c2nc1sc2C (centres undefined)	DU-145 prostate	TGI	> 25 µM

Read the next record carefully.
Form field TGI, entry COc1ccc(-n2cc(-c3cc(OC)c(OC)c(OC)c3)nc2SCc2ccccc2)cc1OC : > 100 µM

* * *

# Test system: MOLT-4 leukemia
# assay.overview: NCI tumour cell line growth inhibition, 48 h
# TGI values compiled below
The answer is to be given in µM; state only the numeric part.

compound	target	assay.readout	data.value
N#Cc1ccc(C(=O)/C=C/c2ccc(O)c(O)c2)cc1	MOLT-4 leukemia	TGI	37.6
COc1cc(Cl)cc(-c2nn(-c3cccc(NC(=O)Nc4cc(C(F)(F)F)cc(C(F)(F)F)c4)c3)cc2-c2ccncc2)c1	MOLT-4 leukemia	TGI	1.92
C=C(C)[C@@H]1CC[C@]2(C)[C@H](CC=C3[C@@H]4[C@@H](C)[C@H](C)CC[C@]4(C(N)=O)CC[C@]32C)[C@@]1(C)CCC#N	MOLT-4 leukemia	TGI	21

Short answer for COc1cccc2c1C(=O)c1c(O)c3c(c(O)c1C2=O)C[C@@](O)(C(=O)CO)C[C@@H]3O[C@H]1C[C@H](N)[C@@H](O)[C@H](C)O1 : TGI was 0.285

Measured TGI, COc1cccc2c1/c(=C/c1ccc(N(C)C)cc1)c1cc(-c3ccccc3)[n+](C)n12 : 0.623

For record O=P1(c2ccccc2)C(c2ccccc2)=CC=C1c1ccccc1 the listed TGI is 44

# compound O=C(c1ccccc1)C(Br)C(Br)c1cccc([N+](=O)[O-])c1 (stereo unspecified) ; its TGI = 5.39

The compound CC(C)(CN1CCCCC1)C(=O)/C=C/c1ccc(Cl)cc1 showed TGI equal to 5.11

* * *

# Tested on: MDA-MB-231 breast
# assay.overview: NCI tumour cell line growth inhibition, 48 h
assay.readout: TGI (µM)
The response must be a number in µM with no trailing unit.

molecule	unit.label	TGI
CC(C)COCC(CN(Cc1ccccc1)c1ccccc1)N1CCCC1 (centres undefined)	µM	5.22
COc1ccc(OC2OC(COC(c3ccccc3)(c3ccc(OC)cc3)c3ccc(OC)cc3)C(O)C(O)C2O)cc1 (centres undefined)	µM	18.1
CCN(CC)c1c(-c2c(N(CC)CC)c(OC(C)=O)c3sccn3c2=O)c(=O)n2ccsc2c1OC(C)=O	µM	57

Next up:
Recorded result, OC(c1cc(-c2ccc(Cl)cc2)nc2ccccc12)C1CCCCN1 (centres undefined) , TGI: 3.58

* * *

Recorded measurements of TGI, one per entry
# Tested on: SK-MEL-5 melanoma
# assay.overview: NCI tumour cell line growth inhibition, 48 h

compound	TGI
NCCN.NCCN.O=C([O-])CCl.O=C([O-])CCl.[Co+3].[O-][Cl+3]([O-])([O-])[O-]	> 100 µM
Cn1c(Cl)cn2c3nc4ccccc4nc3c(=O)c(C#N)c12	> 100 µM
Cc1cc2nc(N3C(=O)/C(=C/c4ccccc4S)N=C3c3ccccc3)sc2cc1C	> 100 µM
O=C(NNCc1ccco1)c1cc2ccccc2[nH]1	> 100 µM
CC1=NN(C(=O)CC(=O)Nc2ccc(C)cc2)C(=O)C1N=Nc1ccc(S(=O)(=O)c2ccc(N=NC3C(=O)N(C(=O)CC(=O)Nc4ccc(C)cc4)N=C3C)cc2)cc1 (stereo not given)	> 100 µM

The compound listed as O=C(Cc1ccc(Cl)cc1)Nc1ccc2oc(-c3ccccc3)nc2c1 shows TGI equal to > 100 µM

Item: C=C(C)[C@@H]1CC[C@]2(C)[C@H](CC=C3[C@@H]4[C@@H](C)[C@H](C)CC[C@]4(C(N)=O)CC[C@]32C)[C@@]1(C)CCC#N | TGI: 8.16 µM

The compound Cc1cc(NCc2cc(Nc3ccnc4cc(Cl)ccc34)ccc2F)nc(N2CCN(C)CC2)n1 showed TGI equal to 3.07 µM

Kindly note the recorded TGI for COc1cc(-n2cc(-c3ccc(Cl)cc3)nc2SCc2cccc(C#N)c2)cc(OC)c1OC , which is > 100 µM

Field TGI (entry O=[N+]([O-])c1cc2c(c([N+](=O)[O-])c1)NCc1ccccc1O2 ) reads > 100 µM

* * *

# System: T-47D breast
# assay.overview: NCI tumour cell line growth inhibition, 48 h
Measured TGI, listed per entry for reference.

Some entries whose results are on file:
molecule	assay.readout	data.value
O=C(O)c1cc(-c2ccncc2)nc2ccccc12	TGI	> 100 µM
Cc1cc(=O)[nH]c2cc3c(c4c(n3Cc3ccc(Cl)cc3Cl)CC(C)(C)CC4=O)c(O)c12	TGI	> 100 µM

Briefly, TGI measured for Cc1ccc(C2SC(N)=Nc3c2c(C)nn3C(=O)c2ccccc2O)cc1 (centres undefined) : > 10 µM

TGI measured on CC(=O)OCC(=O)[C@@]12OC(C)(C)O[C@@H]1C[C@H]1[C@@H]3CC=C4C[C@@H](O)CC[C@]4(C)[C@H]3CC[C@@]12C = > 100 µM

Briefly, TGI measured for CC(C)(C)OC(=O)N1CCC2(C)CC(=O)CC=C12 (centres undefined) : > 100 µM

Lab note: CN1C(=O)C(c2c[nH]c3ccccc23)N(C)C(=O)C1c1c[nH]c2ccccc12 (centres undefined) gave TGI of > 100 µM

// Cc1ccc2nc(-c3ccccc3)c(N=O)n2c1 : TGI value = > 100 µM

The molecule COC(=O)C(Cc1ccc(Oc2cc(CC(NC(=O)c3ccccc3)C(=O)OC)ccc2OC)cc1)NC(=O)c1ccccc1 (centres undefined) showed TGI equal to > 51.4 µM

Lab book: TGI of CC1OC(OC2C(OC(=O)[C@@H]3CC(C)(C)C[C@@H]4C5=CC[C@@H]6[C@@]7(C)C[C@H](O)[C@H](OC8OC(CO)C(O)C(O)C8O)[C@@](C)(CO)C7[C@H](O)C[C@@]6(C)[C@]5(C)C[C@@H](O)[C@H]43)OCC(O)C2O)C(O)C(O)C1O (some centres undefined) noted as > 15 µM

* * *

# Test system: EKVX NSCLC
# assay.overview: NCI tumour cell line growth inhibition, 48 h
Examples of molecules with documented TGI follow.

Previously resolved entries follow.
molecule	target	TGI
N=[N+]=CC(=O)CCC(NC(=O)C(CCC(=O)C=[N+]=N)NC(=O)CCC(N)C(=O)O)C(=O)O (configuration not stated)	EKVX NSCLC	> 100 µM
Nc1nc2n[nH]nc2c(=O)[nH]1	EKVX NSCLC	> 100 µM
Cc1c(C(=O)CC(=O)C(=O)Nc2ccc(Cl)cc2)[n+](=O)c2ccccc2n1[O-]	EKVX NSCLC	> 100 µM

In plain terms, NC(=O)C1Cc2cc3c(cc21)OCO3 (configuration not stated) has a documented TGI of > 100 µM

The reported TGI of the molecule CN(N)/N=N/c1nc[nH]c1[N+](=O)[O-] was > 100 µM

Recorded TGI (molecule CC(O)c1ccc[n+](Cc2ccccc2)c1 (configuration not stated) ): > 400 µM

Kindly note the recorded TGI for Cc1ccc2c(c1)CC1(Cc3c(C)cccc3C1=O)C2=O (configuration not stated) , which is > 100 µM

* * *

# System: SR leukemia
# assay.overview: NCI tumour cell line growth inhibition, 48 h
assay.readout: TGI

Solved cases below.
compound	TGI
C[n+]1ccc(Nc2ccc(NC(=O)c3ccc(Nc4cc[n+](C)c5ccc([N+](=O)[O-])cc45)cc3[N+](=O)[O-])cc2)cc1	> 100 µM
COc1c(Br)cc(/C=C(\C#N)c2cccnc2)cc1Br	> 100 µM
COC(=O)C1(C(=O)OC)Cc2ccc(C)cc2C2=C1C(=O)c1ccccc1C2=O	> 100 µM

So for CC(=O)c1cccc(Nc2nc3ccc(Cl)cc3c3[nH]c4ccccc4c23)c1 , the logged TGI turned out to be > 100 µM

TGI reading for COc1cccc2c1/c(=C/c1ccc(N(C)C)cc1)c1cc(-c3ccccc3)[n+](C)n12 : 0.899 µM

Item: Oc1ccccc1CNCC12CC3CC(CC(C3)C1)C2 | TGI: 58.6 µM
